- Tested on: H1N1 California/07/2009
- assay procedure: microbe, parasite or virus in culture
- Assay type: cell-based, influenza A virus
- condition label: Influenza A H1N1 California/07/20/09 (so in the source), later run; Drug Assay Neutral Red; read-out: EC50
Bridge positions count the residues as written; N and C are the ends. Square brackets hold non-standard residues; d marks the D form. Peptide text beside a SMILES is read from it. R8 = C=CCCCCCC[C@@](C)(N)C(=O)O; S5 = C=CCCC[C@](C)(N)C(=O)O; Nle = CCCC[C@H](N)C(=O)O; Aib = CC(C)(N)C(=O)O
value type: pEC50
Give bare numbers, as −log10 of the molar value.

Consider the following illustrative entries.
CCCC[C@H](NC(C)=O)C(=O)N[C@@H](CC(=O)O)C(=O)N[C@H](C(=O)N[C@@H](CC(N)=O)C(=O)N[C@]1(C)CCCCCCC=CCCC[C@@](C)(C(=O)N[C@@H](CCC(N)=O)C(=O)N[C@@H](C)C(=O)N[C@@H](C)C(=O)N[C@@H](C)C(=O)N[C@@H](C)C(N)=O)NC(=O)[C@H](C)NC(=O)[C@H](CC(C)C)NC(=O)[C@H](Cc2ccccc2)NC(=O)[C@H](CC(C)C)NC(=O)[C@H](CC(C)C)NC(=O)[C@H]([C@@H](C)O)NC1=O)C(C)C [SP-27] (Ac-[Nle]DVN[R8]TLLFLA[S5]QAAAA-NH2; staple 5-12) :: 5.06
CCCC[C@H](NC(C)=O)C(=O)N[C@@H](CC(=O)O)C(=O)N[C@H](C(=O)N[C@@H](CC(N)=O)C(=O)N[C@]1(C)CCCCCCC=CCCC[C@@](C)(C(=O)N[C@@H](C)C(=O)N[C@@H](C)C(=O)N[C@@H](CCC(N)=O)C(N)=O)NC(=O)[C@H](C)NC(=O)[C@H](CC(C)C)NC(=O)[C@H](Cc2ccccc2)NC(=O)[C@H](CC(C)C)NC(=O)[C@H](CC(C)C)NC(=O)[C@H]([C@@H](C)O)NC1=O)C(C)C [SP-18] (Ac-[Nle]DVN[R8]TLLFLA[S5]AAQ-NH2; staple 5-12) :: 5.15
CCCC[C@H](NC(C)=O)C(=O)N[C@@H](CC(=O)O)C(=O)N[C@H](C(=O)N[C@@H](CC(N)=O)C(=O)N[C@]1(C)CCCCCCC=CCCC[C@@](C)(C(=O)N[C@@H](C)C(=O)N[C@@H](C)C(=O)N[C@@H](C)C(=O)N[C@@H](C)C(=O)N[C@@H](C)C(N)=O)NC(=O)[C@H](C)NC(=O)[C@H](CC(C)C)NC(=O)[C@H](Cc2ccccc2)NC(=O)[C@H](CC(C)C)NC(=O)[C@H](CC(C)C)NC(=O)[C@H]([C@@H](C)O)NC1=O)C(C)C [SP-25] (Ac-[Nle]DVN[R8]TLLFLA[S5]AAAAA-NH2; staple 5-12) :: 5.18

Turning now to a further compound:
Q. Need pEC50 of CCCC[C@H](NC(C)=O)C(=O)N[C@@H](CC(=O)O)C(=O)N[C@H](C(=O)N[C@@H](CC(N)=O)C(=O)N[C@@]1(C)CCCC=CCCC[C@@](C)(C(=O)N[C@@H](CC(C)C)C(=O)N[C@@H](C)C(=O)N[C@H](C(=O)N[C@@H](CCC(N)=O)C(=O)NC(C)(C)C(=O)N[C@@H](C)C(=O)N[C@@H](C)C(=O)N[C@@H](C)C(N)=O)C(C)C)NC(=O)[C@H](CC(C)C)NC(=O)[C@H](CC(C)C)NC(=O)[C@H]([C@@H](C)O)NC1=O)C(C)C [SP-21] (Ac-[Nle]DVN[S5]TLL[S5]LAVQ[Aib]AAA-NH2; staple 5-9) , thanks.
A. 4.68
